Source listed as ChEMBL document CHEMBL4613324.

Biological target: Dipeptidyl peptidase 9 (Homo sapiens)
Sequence (Q86TI2 whole entry): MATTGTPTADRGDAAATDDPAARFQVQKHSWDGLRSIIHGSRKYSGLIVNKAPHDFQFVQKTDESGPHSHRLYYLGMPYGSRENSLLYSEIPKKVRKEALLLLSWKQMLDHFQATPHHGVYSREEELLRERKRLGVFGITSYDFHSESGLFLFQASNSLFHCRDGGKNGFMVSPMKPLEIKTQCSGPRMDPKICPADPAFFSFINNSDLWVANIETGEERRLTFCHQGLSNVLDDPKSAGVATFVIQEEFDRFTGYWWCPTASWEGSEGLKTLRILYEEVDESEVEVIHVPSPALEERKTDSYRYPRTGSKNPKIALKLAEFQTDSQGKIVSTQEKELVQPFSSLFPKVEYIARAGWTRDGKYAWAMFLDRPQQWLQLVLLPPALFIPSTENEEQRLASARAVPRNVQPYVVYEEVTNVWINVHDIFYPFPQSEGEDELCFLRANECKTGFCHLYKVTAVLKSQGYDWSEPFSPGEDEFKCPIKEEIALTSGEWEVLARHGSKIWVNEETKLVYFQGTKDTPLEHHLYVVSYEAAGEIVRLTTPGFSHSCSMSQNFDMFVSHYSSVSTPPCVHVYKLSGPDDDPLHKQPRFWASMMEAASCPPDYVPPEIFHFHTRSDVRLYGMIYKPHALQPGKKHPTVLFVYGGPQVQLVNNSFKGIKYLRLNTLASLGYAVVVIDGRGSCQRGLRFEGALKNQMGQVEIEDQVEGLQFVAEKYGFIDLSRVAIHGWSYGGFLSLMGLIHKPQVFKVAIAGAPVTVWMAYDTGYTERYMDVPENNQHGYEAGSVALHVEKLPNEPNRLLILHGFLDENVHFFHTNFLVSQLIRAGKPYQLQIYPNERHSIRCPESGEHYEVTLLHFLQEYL
Assay: Inhibition of human recombinant DPP9 incubated for 15 mins using Gly-Pro-7-AMC substrate
attribute-measured: IC50

INSERT INTO assay_data (compound, result) VALUES
  ('CS(=O)(=O)n1cc2c(n1)CN([C@@H]1C[C@H](N)[C@@H](c3cc(F)ccc3F)O[C@@H]1C(F)(F)F)C2 [COFROGLIPTIN]', '> 100 µM');

====

Test: Toxicity in female Sprague-Dawley rat during 3-month repeated dose toxicology study
Conditions: in vivo
attribute-measured: NOAEL at 3 month

INSERT INTO assay_data (compound, attribute_measured, result) VALUES
  ('CS(=O)(=O)n1cc2c(n1)CN([C@@H]1C[C@H](N)[C@@H](c3cc(F)ccc3F)O[C@@H]1C(F)(F)F)C2 [COFROGLIPTIN]', 'NOAEL at 3 month', '100 mg/kg');
